System: COLO 205 colon
METHOD SUMMARY: NCI-60 one-dose screen, 48 h
ASSAY CONTEXT: 10 µM unless noted
The panel holds about 83,000 compounds, 20% with a hit somewhere; the sample as a whole holds those more often. Active and inactive are the calls of the source. How the source made its calls: active means growth percent below 10; inactive means the rest.
// allowed return values: active, inactive

Sample answers from the record:
O=C(CSc1nnc(Cc2ccccc2Nc2c(Cl)cccc2Cl)n1-c1ccccc1)N1N=C(c2ccc3ccccc3c2)CC1c1ccc(Cl)cc1 (centres undefined)	inactive
CCOC(=O)c1ccc(NC(=O)CSC(N)=O)cc1	inactive
CCN(CC)c1ccc(/C=C2/NC(=O)NC2=O)cc1	active

Then this molecule:
Returns: the outcome recorded for `CN1C2CCC1/C(=C\c1ccc(Cl)cc1)C(=O)/C2=C/c1ccc(Cl)cc1` in this assay.
inactive

###

System: SK-MEL-5 melanoma
METHOD SUMMARY: NCI-60 one-dose screen, 48 h
ASSAY CONTEXT: 10 µM unless noted
Compounds without any hit were thinned out: in the full panel of roughly 83,000, 20% have a hit. Activity calls are given as the source filed them. The calls were made as follows: active = growth percent below 10; inactive = the rest.
// allowed return values: active, inactive

Sample answers from the record:
CC(C)=CC[C@@H]1CC2(CC=C(C)C)C(=O)C(OC3(C(=O)c4ccccc4)C(=O)C4(CC=C(C)C)C[C@@H](CC=C(C)C)C(C)(C)C(CC=C(C)C)(C4=O)C3=O)(C(=O)c3ccccc3)C(=O)C(CC=C(C)C)(C2=O)C1(C)C (stereo not given in full)	active
COc1ccccc1-[n+]1cc(-c2ccc(-c3ccccc3)cc2)n2c1CCCCC2	active
O=C1Nc2ccc(Br)cc2/C1=N/c1nc(-c2ccccc2)cs1	inactive
CS(=O)(=O)c1ccc(C(=O)N/N=C/c2ccc3c(c2)OCO3)cc1	inactive

Then this molecule:
Returns: the outcome recorded for Nc1ncnc2c1N=C(c1ccc3c(c1)OCO3)CC(c1ccc(Cl)cc1)N2 (stereo not given) in this assay.
inactive

###

Tested on: PC-3 prostate
METHOD SUMMARY: NCI-60 one-dose screen, 48 h (100 = growth as untreated, 0 = no growth, -100 = all killed)
ASSAY CONTEXT: 10 µM unless noted
This is part of a sample that, as a whole, favours compounds with a hit. Of some 83,000 tested, about 20% had one in any assay.
Returns one of yes (1) or no (0); yes (1) when growth is >= 30%.

COc1cc(C2C(C#N)=C(N)Oc3cc4c(cc32)OCO4)cc2c1OCO2 (stereo unspecified)	no (0)
CC(C)(CCc1ccccn1)C(=O)CCCc1ccccn1	yes (1)
Cc1nc(N)nc2c1CCC(Nc1ccccc1)S2 (stereo unspecified)	yes (1)
O=C1C(Cl)=C(Nc2cccc3ccccc23)C(=O)c2ccccc21	yes (1)
O=P(O)(O)C(O)(Cc1cccnc1)P(=O)(O)O	yes (1)

Dear colleague, could you confirm whether `ClCc1c(Cl)c(Cl)c(Cl)c(CCl)c1Cl` has growth at or above 30%?
no (0)

Dear colleague, could you confirm whether Cc1ccccc1C1CC(=O)c2ccccc2C1C (stereo unspecified) has growth at or above 30%?
yes (1)

Dear colleague, could you confirm whether `Cc1ccc(C)c(NC(=O)c2sc3c(=O)[nH]cnc3c2C)c1` has growth at or above 30%?
yes (1)

Dear colleague, could you confirm whether `O=C(O)CSc1ccc(NCc2oc(CO)cc(=O)c2O)cc1` has growth at or above 30%?
yes (1)

Dear colleague, could you confirm whether `C/C(=N\Nc1ccc([N+](=O)[O-])cn1)c1ccc(N)cc1` has growth at or above 30%?
yes (1)

Dear colleague, could you confirm whether `O=C(/C=C/c1ccc(F)cc1)N1CCN(C(=O)/C=C/c2ccc(C(F)(F)F)cc2)CC1` has growth at or above 30%?
yes (1)

Dear colleague, could you confirm whether `CCCCCCCC/C=C/CCCCCCCC1=NC(C)(C)CN1c1ccccc1` has growth at or above 30%?
yes (1)

Dear colleague, could you confirm whether `O=C(CCl)N1c2ccccc2Oc2ccc3ccccc3c21` has growth at or above 30%?
no (0)

Dear colleague, could you confirm whether `C=C1C(=O)O[C@H]2[C@H]1CC/C(COC(=O)N[C@@H](Cc1c[nH]c3ccccc13)C(=O)OC)=C\CC[C@@]1(C)O[C@@H]21` has growth at or above 30%?
yes (1)
